Hello, the source for this data is patent US6649626B1, in case you need it.

Target: benzodiazepine-binding site of the GABA-A receptor (Rattus norvegicus, UniProt P18508+P62813)
Construct: IC50 Flu / BZ receptor; other: cerebellum (ce); other: cerebellum (ce; BZ1 subtype); other: 10 μM; cerebellum; other: 100 μM; other: 0.5 μM
Sequence (P62813 28-455): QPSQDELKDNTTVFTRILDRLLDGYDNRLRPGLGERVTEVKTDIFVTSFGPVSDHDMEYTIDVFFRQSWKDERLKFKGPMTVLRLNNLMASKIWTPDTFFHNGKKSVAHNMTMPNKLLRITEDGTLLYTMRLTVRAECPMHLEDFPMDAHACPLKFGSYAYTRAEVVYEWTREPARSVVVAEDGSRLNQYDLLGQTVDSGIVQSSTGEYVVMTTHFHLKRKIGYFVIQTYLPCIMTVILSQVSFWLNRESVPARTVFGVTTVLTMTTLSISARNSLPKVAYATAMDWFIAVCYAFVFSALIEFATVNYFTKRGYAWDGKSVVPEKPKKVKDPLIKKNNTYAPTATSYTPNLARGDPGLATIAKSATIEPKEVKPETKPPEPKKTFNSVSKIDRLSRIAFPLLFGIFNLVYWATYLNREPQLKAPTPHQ
Sequence (P18508 39-466): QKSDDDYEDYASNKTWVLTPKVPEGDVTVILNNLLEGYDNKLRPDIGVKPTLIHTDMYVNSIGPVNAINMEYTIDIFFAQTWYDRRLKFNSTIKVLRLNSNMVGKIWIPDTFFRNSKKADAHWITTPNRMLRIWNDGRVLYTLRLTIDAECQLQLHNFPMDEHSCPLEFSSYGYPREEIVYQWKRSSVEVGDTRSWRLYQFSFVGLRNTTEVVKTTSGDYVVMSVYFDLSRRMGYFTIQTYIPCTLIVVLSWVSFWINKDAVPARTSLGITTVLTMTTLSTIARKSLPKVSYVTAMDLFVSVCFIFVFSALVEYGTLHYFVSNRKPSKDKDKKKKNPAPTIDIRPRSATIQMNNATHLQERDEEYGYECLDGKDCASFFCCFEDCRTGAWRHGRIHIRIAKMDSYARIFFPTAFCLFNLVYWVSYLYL
Sequence (P63138 26-474 partner): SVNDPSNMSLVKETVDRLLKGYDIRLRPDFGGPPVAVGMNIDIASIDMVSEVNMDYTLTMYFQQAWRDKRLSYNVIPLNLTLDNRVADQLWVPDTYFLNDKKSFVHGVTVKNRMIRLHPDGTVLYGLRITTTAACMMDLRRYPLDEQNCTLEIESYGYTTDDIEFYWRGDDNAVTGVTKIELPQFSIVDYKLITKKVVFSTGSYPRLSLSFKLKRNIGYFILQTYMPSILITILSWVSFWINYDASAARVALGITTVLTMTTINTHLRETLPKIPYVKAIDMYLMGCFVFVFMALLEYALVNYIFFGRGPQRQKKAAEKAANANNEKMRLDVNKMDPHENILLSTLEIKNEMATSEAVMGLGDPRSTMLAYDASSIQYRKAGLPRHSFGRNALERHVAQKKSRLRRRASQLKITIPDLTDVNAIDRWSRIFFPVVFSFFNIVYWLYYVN
Experiment: Displacement of tritiated flunitrazepam from brain membranes
Conditions: 100 μM; tissue not stated
value-kind: Inhibition of the tritiated ligands % Flu (100 μM)

[[record]]
molecule = "COc1cc2c(cc1OC)[C@H]([C@@H]1C=C(C)C(=O)O1)N(C)CC2 (racemic) [Compound 30b]"
recorded_measurement = "negligible"

[[record]]
molecule = "COc1cc2c(cc1OC)[C@H]([C@@H]1CCC(=O)O1)N(C(=O)OCc1ccccc1)CC2 (racemic)"
recorded_measurement = "30%"

[[record]]
molecule = "O=C1C=CC(C2c3ccccc3CCN2C(=O)OCc2ccccc2)O1 (racemic) [Compound 50]"
recorded_measurement = "100%"

[[record]]
molecule = "O=C1C=CC(C2c3ccccc3CCN2C(=O)Oc2ccccc2)O1 (racemic)"
recorded_measurement = "70%"

[[record]]
molecule = "COc1cc2c(cc1OC)[C@H]([C@@H]1CCC(=O)O1)NCC2 (racemic) [Compound 27b]"
recorded_measurement = "negligible"

[[record]]
molecule = "O=C1C=CC(C2c3ccccc3CCN2C(=O)OCc2ccccc2)O1 (racemic) [Compound 51]"
recorded_measurement = "85%"


* * *

Target: α1β2γ2 subtype of the GABA receptor (Rattus norvegicus, UniProt P18508+P62813+P63138)
Construct: expressed in transfected cells; host or cells: Xenopus laevis oocytes (cRNA injection)
Sequence (P63138 25-474 limits assumed, one chain of several): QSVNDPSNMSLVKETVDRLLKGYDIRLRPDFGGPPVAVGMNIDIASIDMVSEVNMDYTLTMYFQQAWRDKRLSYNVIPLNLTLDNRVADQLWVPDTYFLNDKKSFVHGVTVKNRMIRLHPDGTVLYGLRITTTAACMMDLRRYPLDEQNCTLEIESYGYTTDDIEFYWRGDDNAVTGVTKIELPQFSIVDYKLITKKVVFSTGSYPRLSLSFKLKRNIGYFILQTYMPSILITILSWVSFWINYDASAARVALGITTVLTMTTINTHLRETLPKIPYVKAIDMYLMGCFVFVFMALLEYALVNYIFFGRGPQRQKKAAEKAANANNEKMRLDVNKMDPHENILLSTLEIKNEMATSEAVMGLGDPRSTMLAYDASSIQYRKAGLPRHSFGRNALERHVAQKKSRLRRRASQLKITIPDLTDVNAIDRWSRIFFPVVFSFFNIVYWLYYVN
Assay: Electrophysiology: modulation of GABA currents in Xenopus oocytes expressing recombinant GABA-A receptors
Assay type: cell-based
Details: 100 μM compound with GABA; α1β2γ2 in oocytes
value-kind: % stimulation of the GABA currents (100 μM)

[[record]]
molecule = "COc1cc2c(cc1OC)[C@H]([C@@H]1CCC(=O)O1)N(C(=O)OCc1ccccc1)CC2 (racemic)"
recorded_measurement = "+67 ± 9%"

[[record]]
molecule = "O=C1C=CC(C2c3ccccc3CCN2C(=O)Oc2ccccc2)O1 (racemic) [Compound 57]"
recorded_measurement = "+175 ± 13%"

[[record]]
molecule = "COc1cc2c(cc1OC)C(C1CCC(=O)O1)N(C(=O)OCc1ccccc1)CC2 (racemic)"
recorded_measurement = "+159 ± 31%"

[[record]]
molecule = "Cc1ccc(S(=O)(=O)N2C=Cc3ccccc3C2[C@H]2CCC(=O)O2)cc1 (mixture of isomers)"
recorded_measurement = "+481 ± 116%"

